The reported measurements were obtained from PubChem BioAssay.

Form field: composite z-score (one value per entry).
# targetDesc: Albumin (Bos taurus) (UniProt P02769)
# Sequence (P02769 whole entry, looked up): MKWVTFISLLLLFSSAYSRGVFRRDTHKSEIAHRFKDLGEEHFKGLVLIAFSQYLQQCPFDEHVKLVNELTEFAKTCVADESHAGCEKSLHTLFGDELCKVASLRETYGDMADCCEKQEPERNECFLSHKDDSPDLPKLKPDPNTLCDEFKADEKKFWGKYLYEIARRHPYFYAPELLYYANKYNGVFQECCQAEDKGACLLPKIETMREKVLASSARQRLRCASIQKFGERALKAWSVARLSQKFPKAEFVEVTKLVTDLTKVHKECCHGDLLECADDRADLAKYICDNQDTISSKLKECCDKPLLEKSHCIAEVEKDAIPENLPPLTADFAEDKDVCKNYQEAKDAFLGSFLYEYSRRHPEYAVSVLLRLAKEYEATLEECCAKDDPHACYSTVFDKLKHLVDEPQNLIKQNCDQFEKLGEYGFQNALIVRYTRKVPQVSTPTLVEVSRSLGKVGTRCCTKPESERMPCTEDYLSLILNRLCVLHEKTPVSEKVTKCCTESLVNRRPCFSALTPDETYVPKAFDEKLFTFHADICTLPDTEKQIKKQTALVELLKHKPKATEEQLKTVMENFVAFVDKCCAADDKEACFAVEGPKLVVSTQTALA
# procedureSummary: bovine serum albumin binders on microarray, profiling panel, artefact control for SMM control protein annotation, biochemical, small-molecule microarray, Alexa647 label, 635/667 nm fluorescence (AID 1118);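 also: score merges 667 nm emission intensity and signal-to-noise per printed compound spot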
# experimentalSetup: BSA-A647 binding, fluorescence 635 nm, higher = more signal

compound	targetDesc	composite z-score
O=C1C2C=CC(C(O)C3CCCCC3)N(Nc3ccc([N+](=O)[O-])cc3)C2C(=O)N1c1ccccc1 (centres undefined)	Albumin (Bos taurus) (UniProt P02769)	0.674
C=C(COC)/C(=C/C[C@H](OC(=O)c1ccncc1)c1ccc(OCCO)cc1)c1cnc2ccccc2c1	Albumin (Bos taurus) (UniProt P02769)	0.808
C=C/C=C/[C@H]1C(=C)CN([C@@H](Cc2ccccc2)C(=O)OC)[C@@H]1[C@H](O)Cc1ccccc1	Albumin (Bos taurus) (UniProt P02769)	-0.668
C=CC[C@@]1(C(N)=O)N=C(c2ccc(OCCCO)cc2)O[C@@H]1c1ccccc1CN=[N+]=[N-]	Albumin (Bos taurus) (UniProt P02769)	0.85

---

# Test system: Inhibin beta A chain (activin A)
# procedureSummary: INHBA (activin A) binders on microarrays, primary screen, biochemical, small-molecule microarray, 635 nm fluorescence scan (AID 1107);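 also: mouse activin A protein probed at 4.33 µg/mL on printed slides; score merges bound-protein fluorescence near 667 nm with spot signal-to-noise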
# experimentalSetup: small-molecule microarray binding, higher = more signal
parameter: composite z-score

compound	parameter	assayValue
CCOC(=O)C[C@H]1[C@H](OC(=O)Cc2ccc3c(c2)OCO3)[C@@H](NC(=O)c2ccc(-c3ccccc3)cc2)c2cc(OCCCO)ccc2N1C(=O)c1ccc2ccccc2n1	composite z-score	-0.0169
C=C[C@H](COC(C)=O)N(C(=O)OC(C)(C)C)S(=O)(=O)c1ccc(Br)cc1	composite z-score	0.838
CCCC=C(CCC)[C@@H](NC(=O)Oc1ccc(F)cc1)c1ccc(C(=O)OC)cc1	composite z-score	0.602
C=CCOC(=O)[C@H]1[C@@H]2C(=O)O[C@@H](c3ccccc3)[C@@H](c3ccccc3)N2[C@@H](c2ccc(OCCOC(=O)[C@@H]3C[C@@H]4C(=O)N5CCC[C@H]5C(=O)N4[C@@H]3c3cccc(OCCO)c3)cc2)[C@]12C(=O)Nc1ccccc12	composite z-score	0.563
O=C1OCC=C[C@H]2OC34C=CCN(c5ccc6ccccc6c5)C(=O)[C@H]3N(CCCCCCO)C(=O)[C@@H]4[C@@H]12 (stereo partly drawn)	composite z-score	0.0633
O=C1c2ccccc2[C@@]2(Cc3ccccc3N(CCN3CCOCC3)C2=O)[C@H](c2ccc(CO)cc2)N1Cc1ccccc1	composite z-score	0.819
COCCOC(=O)N1C(=O)[C@@]2(c3cc(C#CCCO)ccc31)[C@H](C(=O)N1CCc3cc(OC)c(OC)cc3C1)[C@H]1C(=O)O[C@H](c3ccccc3)[C@H](c3ccccc3)N1[C@@H]2c1ccc(O)cc1	composite z-score	-0.132
COCCOC(=O)N1C(=O)[C@@]2(c3cc(C#CC4=CCCCC4)ccc31)[C@H](C(=O)Nc1nc3ccccc3s1)[C@H]1C(=O)O[C@H](c3ccccc3)[C@H](c3ccccc3)N1[C@@H]2c1ccc(OCCO)cc1	composite z-score	0.91
COc1ccc(C(O)C2C=CC3C(=O)N(c4ccccc4)C(=O)C3N2Nc2ccc(C(C)C)cc2)cc1OCc1ccccc1 (stereo not drawn)	composite z-score	0.521
COC(=O)[C@@]1(Cc2ccc(F)cc2)[C@H]2c3cc(C(=O)N(C)C)n(CC4CC4)c3C[C@H]2CN1C(=O)c1ccccc1	composite z-score	0.14
COC(=O)c1c(CC[C@@H](CO)NC(=O)N[C@H](Cn2cc(Cc3ccccc3)nn2)C(C)C)oc(C(C)=O)c1C(=O)OC	composite z-score	0.509
COc1ccc(C(=O)Nc2cccc(CN3C(=O)[C@]4(O[C@H](CCO)[C@@H]([Si](C)(C)c5ccc(OC)cc5)[C@@H]4C)c4ccccc43)c2)cc1	composite z-score	1.26
COCCOC(=O)N1C(=O)[C@@]2(c3cc(C#CCCO)ccc31)[C@H](c1ccc(OCCO)cc1)N1[C@H](c3ccccc3)[C@H](c3ccccc3)OC(=O)[C@H]1[C@@H]2C(=O)N1CCN(c2ncccn2)CC1	composite z-score	0.845
O=C1C2C=CC(C(O)C3CCCCC3)N(Nc3ccc([N+](=O)[O-])cc3)C2C(=O)N1c1ccccc1 (stereo not drawn)	composite z-score	-1.28
O=C1c2ccccc2[C@](Cc2ccccc2I)(C(=O)NC2CC2)[C@H](c2ccc(CO)cc2)N1Cc1ccccc1	composite z-score	0.0183
CCC(CC)C(O)C1C=CC2C(=O)N(C)C(=O)C2N1Nc1ccccc1 (stereo not drawn)	composite z-score	0.867
O=C1O[C@H](c2ccccc2)[C@H](c2ccccc2)N2[C@H]1[C@@H](C(=O)O)[C@]1(C(=O)Nc3ccc(C#CCCO)cc31)[C@H]2c1ccc(O)cc1	composite z-score	1.18
C=CC[C@@]1(C(N)=O)N=C(c2ccc(OCCCO)cc2)O[C@@H]1c1ccccc1CN=[N+]=[N-]	composite z-score	1.14
C[N+](C)(C)CCCC[C@@H]1NC(=O)[C@@H]2C[C@H](C(=O)NCCCCCN)[C@H](c3cccc(OCCO)c3)N2C1=O	composite z-score	-0.68
NCCCCCNC(=O)[C@@H]1C[C@@H]2C(=O)N[C@@H](Cc3ccccc3)C(=O)N2[C@@H]1c1cccc(OCCO)c1	composite z-score	0.619
C=CCN1C(=O)[C@]2(O[C@H](CCO)[C@@H]([Si](C)(C)c3ccc(OC)cc3)[C@@H]2C)c2cc(N3C(=O)c4cccc5cccc3c45)ccc21	composite z-score	0.552
NCCCCCNC(=O)[C@@H]1C[C@@H]2C(=O)NCC(=O)N2[C@@H]1c1ccc(O)cc1	composite z-score	0.294
C#CCN(CC=C(C)C)[C@H](CO)c1ccccc1	composite z-score	0.942
C=C/C=C/[C@H]1C(=C)CN([C@@H](Cc2ccccc2)C(=O)OC)[C@@H]1[C@H](O)Cc1ccccc1	composite z-score	0.97
Cc1ccc(S[C@]2(C(=O)NCC(F)(F)F)CC(=O)N(C(C)C)[C@@H]2c2ccc(CO)cc2I)cc1	composite z-score	0.743
COc1ccc(CCN2C(=O)[C@@]3(Cc4ccccc42)c2ccccc2C(=O)N(Cc2ccccc2C(F)(F)F)[C@H]3c2ccc(CO)cc2)cc1	composite z-score	0.717
COCC(=C=CC[C@@H](O)c1ccccc1OCCO)C[C@@H](O)c1cc(Cl)cc(Cl)c1O	composite z-score	0.495
CN1C(=O)C2C=CC(C(O)C3CCCCC3)N(Nc3ccc([N+](=O)[O-])cc3[N+](=O)[O-])C2C1=O (stereo not drawn)	composite z-score	0.738
